tested on: S. aureus in patients with atopic dermatitis; assay type: cell-based, Staphylococcus aureus
Readout: Resistance (%), resistant strains
Write the value in % as a bare number.

Noted for CN(C)[C@@H]1C(O)=C(C(N)=O)C(=O)[C@@]2(O)C(O)=C3C(=O)c4c(O)cccc4[C@@](C)(O)[C@H]3C[C@@H]12 : its Resistance (%), resistant strains reads 15.5

Noted for CCCCCCCCCC(=O)N[C@@H](Cc1c[nH]c2ccccc12)C(=O)N[C@H](CC(N)=O)C(=O)N[C@@H](CC(=O)O)C(=O)N[C@@H]1C(=O)NCC(=O)N[C@@H](CCCN)C(=O)N[C@@H](CC(=O)O)C(=O)N[C@H](C)C(=O)N[C@@H](CC(=O)O)C(=O)NCC(=O)N[C@H](CO)C(=O)N[C@@H]([C@H](C)CC(=O)O)C(=O)N[C@@H](CC(=O)c2ccccc2N)C(=O)O[C@@H]1C : its Resistance (%), resistant strains reads 54.7

Noted for C/C(=C\C(=O)OCCCCCCCCC(=O)O)C[C@@H]1OC[C@H](C[C@@H]2O[C@H]2[C@@H](C)[C@H](C)O)[C@@H](O)[C@H]1O : its Resistance (%), resistant strains reads 17.5

Noted for CCC[C@@H]1C[C@@H](C(=O)N[C@@H]([C@H]2O[C@H](SC)[C@H](O)[C@@H](O)[C@H]2O)[C@@H](C)O)N(C)C1 : its Resistance (%), resistant strains reads 37.5

Noted for CC1(C)S[C@@H]2[C@H](NC(=O)[C@H](N)c3ccccc3)C(=O)N2[C@H]1C(=O)O : its Resistance (%), resistant strains reads 58.5

Noted for CC(=O)O[C@H]1C[C@@]2(C)[C@@H](C[C@@H](O)[C@H]3[C@@]4(C)CC[C@@H](O)[C@@H](C)[C@@H]4CC[C@@]32C)/C1=C(\CCC=C(C)C)C(=O)O : its Resistance (%), resistant strains reads 15.5

###

test system: Staphylococcus aureus strains isolated from control group; assay: microbe, parasite or virus in culture; conditions: 18 h
Kindly supply the reported MIC90 values for the records listed here.

Noted for CC[C@H]1OC(=O)[C@H](C)[C@@H](O[C@H]2C[C@@](C)(OC)[C@@H](O)[C@H](C)O2)[C@H](C)[C@@H](O[C@@H]2O[C@H](C)C[C@H](N(C)C)[C@H]2O)[C@](C)(O)C[C@@H](C)C(=O)[C@H](C)[C@@H](O)[C@]1(C)O [Erythromycin, erythromycin] : its MIC90 reads > 512 µg/mL

Noted for CC1(C)S[C@@H]2[C@H](NC(=O)[C@H](N)c3ccccc3)C(=O)N2[C@H]1C(=O)O [Ampicillin, ampicillin] : its MIC90 reads 32 µg/mL

Noted for CN[C@H](CC(C)C)C(=O)N[C@H]1C(=O)N[C@@H](CC(N)=O)C(=O)N[C@H]2C(=O)N[C@H]3C(=O)N[C@H](C(=O)N[C@H](C(=O)O)c4cc(O)cc(O)c4-c4cc3ccc4O)[C@H](O)c3ccc(c(Cl)c3)Oc3cc2cc(c3O[C@@H]2O[C@H](CO)[C@@H](O)[C@H](O)[C@H]2O[C@H]2C[C@](C)(N)[C@H](O)[C@H](C)O2)Oc2ccc(cc2Cl)[C@H]1O [Vancomycin, vancomycin] : its MIC90 reads 1 µg/mL

Noted for CC(=O)O[C@H]1C[C@@]2(C)[C@@H](C[C@@H](O)[C@H]3[C@@]4(C)CC[C@@H](O)[C@@H](C)[C@@H]4CC[C@@]32C)/C1=C(\CCC=C(C)C)C(=O)O [Fusidic acid, fusidic acid] : its MIC90 reads 16 µg/mL
